# target under test: T1, cynomolgus monkey IL-33 expressed with a C-terminal hexahistidine tag (cynomolgus monkey)
# T1 construct: also called MfIL-33-6His; Mf-IL-33-6His
# T1 chain: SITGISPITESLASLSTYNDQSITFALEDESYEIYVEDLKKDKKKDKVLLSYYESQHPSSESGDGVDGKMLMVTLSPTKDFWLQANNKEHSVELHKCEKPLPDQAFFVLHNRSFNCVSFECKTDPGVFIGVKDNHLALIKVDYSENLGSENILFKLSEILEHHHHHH
# test description: SPR 25C pH7.4, mAb captured
# Experimental: Equilibrium dissociation constants (KD values) for IL-33 binding to purified anti-IL-33 monoclonal antibodies were determined using a real-time surface plasmon resonance biosensor using a Biacore 4000 instrument. […] Association of either hIL-33 or MfIL-33-6His to the captured monoclonal antibody was monitored for 4 minutes and their dissociation in ABS-ET running buffer was monitored for 10 minutes. […]
test readout: koff (s⁻¹)
Write the number in s⁻¹ without appending the unit.

// query Recall and state the measured koff for H4H9660P (antibody, human IgG4, V domains shown, Human IgG4 Fc (H4H)) VH: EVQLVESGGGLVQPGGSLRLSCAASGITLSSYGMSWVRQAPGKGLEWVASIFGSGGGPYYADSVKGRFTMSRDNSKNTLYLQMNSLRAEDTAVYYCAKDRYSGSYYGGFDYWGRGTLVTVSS VL: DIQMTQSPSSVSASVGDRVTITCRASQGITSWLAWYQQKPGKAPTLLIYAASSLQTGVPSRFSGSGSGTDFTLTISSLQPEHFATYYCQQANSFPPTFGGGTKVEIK .
// result 0.00149

// query Identify measured koff associated with H4H9662P (antibody, V domains shown, Human IgG4 Fc (H4H)) VH: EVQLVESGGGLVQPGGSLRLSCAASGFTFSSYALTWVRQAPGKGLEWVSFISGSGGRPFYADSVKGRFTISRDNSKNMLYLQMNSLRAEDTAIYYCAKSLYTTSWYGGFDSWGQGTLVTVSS VL: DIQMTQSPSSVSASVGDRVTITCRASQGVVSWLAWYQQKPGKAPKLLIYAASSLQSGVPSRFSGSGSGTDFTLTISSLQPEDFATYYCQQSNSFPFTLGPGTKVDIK
// result 0.000442

// query Using the record for H4H9633P (antibody, human IgG4, V domains shown, Human IgG4 Fc (H4H)) VH: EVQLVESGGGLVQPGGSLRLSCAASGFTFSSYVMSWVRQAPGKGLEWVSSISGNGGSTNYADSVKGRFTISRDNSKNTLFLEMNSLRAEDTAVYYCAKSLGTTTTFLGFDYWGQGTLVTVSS VL: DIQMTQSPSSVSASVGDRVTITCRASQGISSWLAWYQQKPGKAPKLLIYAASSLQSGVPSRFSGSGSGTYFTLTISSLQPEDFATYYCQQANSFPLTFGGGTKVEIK , state its measured koff.
// result 0.00997
